Attribution: paper PMC9276671

- experiment_summary: Plasma pharmacokinetics of ALM201 in Phase I patients (validated LC-MS/MS, Phoenix WinNonlin)
- condition_info: human, plasma, sc, 300 mg, Plasma concentration, geometric mean (CV%), 300 mg SC, day 18 cycle 4, 1.5 h after dosing, n = 1; LC-MS/MS
No end group written: not given here.

>  <sequence_entry>
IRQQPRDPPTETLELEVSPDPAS [ALM201]

>  <level at 1.5 h>
1990 ng/mL

$$$$

* * *

- experiment_summary: Plasma pharmacokinetics of ALM201 in Phase I patients (validated LC-MS/MS, Phoenix WinNonlin)
- condition_info: human, plasma, sc, 200 mg, Plasma concentration, geometric mean (CV%), 200 mg SC, day 18 cycle 4, 2 h after dosing, n = 2; LC-MS/MS
No end group written: not given here.
recorded_endpoint: level at 2 h (ng/mL)

>  <sequence_entry>
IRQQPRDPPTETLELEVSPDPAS [ALM201]

>  <reported_value>
1500

$$$$
